target: human NK-2 receptor (Homo sapiens, UniProt P21452); construct: expressed in transfected cells; host or cells: CHO-hNK-2R cells (CHO-derived), membrane preparation; test: NK-2 Receptor Binding Assay (CHO-hNK-2R membranes, iodohistidyl-neurokinin A); settings: inhibition of neurokinin A binding at ten micromolar, read-out: Percent Inhibition @ 10 μM
Sequence (P21452 whole entry): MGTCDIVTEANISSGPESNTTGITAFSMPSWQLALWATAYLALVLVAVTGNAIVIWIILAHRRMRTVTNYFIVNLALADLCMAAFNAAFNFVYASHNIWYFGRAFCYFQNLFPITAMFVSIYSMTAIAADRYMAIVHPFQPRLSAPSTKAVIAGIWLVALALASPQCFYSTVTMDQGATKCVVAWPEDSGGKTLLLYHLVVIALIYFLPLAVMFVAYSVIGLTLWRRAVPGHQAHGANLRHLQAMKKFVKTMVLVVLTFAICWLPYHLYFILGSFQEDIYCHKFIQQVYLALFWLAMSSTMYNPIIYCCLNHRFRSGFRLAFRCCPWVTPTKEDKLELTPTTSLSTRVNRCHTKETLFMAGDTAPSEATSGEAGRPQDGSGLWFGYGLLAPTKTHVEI
Measured inhibition at 10 µM by item

| molecule | unit.of.measurement | inhibition at 10 µM |
| --- | --- | --- |
| COc1cc(-c2nc3ccccc3n2Cc2ccccc2Cl)cc(OC)c1OC [Example 41] | % | 73.7 |
| Cc1cccc(-c2nc3ccc(OCCN(C)C)cc3n2Cc2ccccc2)c1 [Example 88] | % | 31.6 |
| COc1cc(-c2nc3ccc(O)cc3n2Cc2ccccc2C(F)(F)F)cc(OC)c1OC [Example 104] | % | 39.3 |
| Cc1cccc(-c2nc3ccc(OCCN4CCOCC4)cc3n2Cc2ccccc2)c1 [Example 87] | % | 81.9 |
| Cc1cccc(-c2nc3ccc(OCC(C)N(C)C)cc3n2Cc2ccccc2)c1 (stereo not drawn) [Example 96] | % | 34 |
| Cc1cccc(-c2nc3ccccc3n2Cc2cccc(Cl)c2)c1 [Example 57] | % | 50.8 |
| COc1ccccc1Cn1c(-c2cc(OC)c(OC)c(OC)c2)nc2ccccc21 [Example 47] | % | 67.7 |
| COc1cc(-c2nc3ccccc3n2Cc2ccccc2C(F)(F)F)cc(OC)c1OC [Example 49] | % | 82 |
| COc1cc(-c2nc3ccccc3n2Cc2c(Cl)cccc2Cl)cc(OC)c1OC [Example 52] | % | -7.1 |

====

biological target: NK-1 receptor (Homo sapiens, UniProt P25103); construct: an aliquot of IM9 cells; endogenous in cells; test: NK-1 Receptor Binding Assay (competition with labeled substance P on IM9 cells); settings: concentration which inhibits fifty percent of the binding of substance P, 20 pM labeled substance P, 45 minutes at 4°C
Sequence (P25103 whole entry): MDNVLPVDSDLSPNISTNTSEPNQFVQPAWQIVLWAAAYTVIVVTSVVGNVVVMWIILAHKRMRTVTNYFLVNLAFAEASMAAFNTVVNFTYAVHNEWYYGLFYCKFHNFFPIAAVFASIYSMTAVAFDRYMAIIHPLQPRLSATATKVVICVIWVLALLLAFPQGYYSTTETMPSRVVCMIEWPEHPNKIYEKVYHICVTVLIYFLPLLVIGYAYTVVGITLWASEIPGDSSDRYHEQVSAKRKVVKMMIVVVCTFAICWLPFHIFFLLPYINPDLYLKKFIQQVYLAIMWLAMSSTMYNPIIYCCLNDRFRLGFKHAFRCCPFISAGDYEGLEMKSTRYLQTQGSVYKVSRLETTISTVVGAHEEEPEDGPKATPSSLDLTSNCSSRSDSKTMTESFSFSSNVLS
pIC50: −log10 of the molar value.
Where pIC50 equals or exceeds 6, the correct label is true; where it does not, the label is false.

| entry.smiles | category |
| --- | --- |
| COc1cc(-c2nc3ccc(OCCN4CCOCC4)cc3n2Cc2ccccc2)cc(OC)c1OC | true |
| COc1ccccc1Cn1c(-c2cc(OC)c(OC)c(OC)c2)nc2ccccc21 | true |
| O=[N+]([O-])c1cccc(-c2nc3ccccc3n2-c2ccccc2)c1 | false |
| N#Cc1cccc(-c2nc3ccccc3n2-c2ccccc2)c1 | false |
| COc1cc(-c2nc3ccc(OCCN4CCCC4)cc3n2Cc2ccccc2)cc(OC)c1OC | true |
| COc1cc(-c2nc3ccccc3n2-c2ccccc2)cc(OC)c1OC | true |
| Cc1cccc(-c2nc3ccc(O)cc3n2Cc2ccccc2)c1 | true |
| COc1cc(-c2nc3ccc(OCCN4CCC(N5CCCCC5)CC4)cc3n2Cc2ccccc2)cc(OC)c1OC | true |
| Clc1ccc(-c2nc3ccccc3n2-c2ccccc2)cc1Cl | false |
| COc1cc(-c2nc3ccccc3n2Cc2cccc(C)c2)cc(OC)c1OC | false |
| COc1ccc(-c2nc3ccccc3n2-c2ccccc2)cc1OC | false |
| COc1cc(-c2nc3ccc(OCCCl)cc3n2Cc2ccccc2)cc(OC)c1OC | true |

====

target: NK-1 receptor (Homo sapiens, UniProt P25103); construct: an aliquot of IM9 cells; endogenous in cells; host or cells: IM9 cells (whole cells); assay: NK-1 Receptor Binding Assay (competition with labeled substance P on IM9 cells); conditions: at 10μM, inhibition of substance P binding to the NK-1 receptor, read-out: Percent Inhibition
Measured inhibition at 10 µM by item

| entry.smiles | inhibition at 10 µM, % |
| --- | --- |
| COc1cc(-c2nc3ccccc3n2Cc2cccc(Cl)c2)cc(OC)c1OC | 77 |
| Cc1cccc(-c2nc3ccccc3n2Cc2ccc(Cl)c(Cl)c2)c1 | 41 |
| COc1cc(-c2nc3ccccc3n2Cc2ccc(Cl)c(Cl)c2)cc(OC)c1OC | 45 |
| COc1cc(-c2nc3ccccc3n2Cc2ccc(Cl)cc2Cl)cc(OC)c1OC | 56 |
| Cc1cccc(-c2nc3ccccc3n2Cc2ccccc2Br)c1 | 72 |
| Cc1cccc(-c2nc3ccccc3n2Cc2ccccc2I)c1 | 66 |
| COc1cccc(Cn2c(-c3cc(OC)c(OC)c(OC)c3)nc3ccccc32)c1 | 81 |
| COc1ccc(Cn2c(-c3cc(OC)c(OC)c(OC)c3)nc3ccccc32)cc1 | 56 |
| Cc1cccc(-c2nc3ccccc3n2Cc2ccc(Cl)cc2)c1 | 29 |

====

Measured inhibition at 10 µM by item
target: human NK-2 receptor (Homo sapiens, UniProt P21452); construct: expressed in transfected cells; host or cells: CHO-hNK-2R cells (CHO-derived), membrane preparation; experiment: NK-2 Receptor Binding Assay (CHO-hNK-2R membranes, iodohistidyl-neurokinin A); settings: inhibition of neurokinin A binding at ten micromolar, read-out: Percent Inhibition @ 10 μM

| entry.smiles | unit.of.measurement | inhibition at 10 µM |
| --- | --- | --- |
| COc1ccc(Cn2c(-c3cc(OC)c(OC)c(OC)c3)nc3ccccc32)cc1 | % | -1.5 |
| COc1cc(-c2nc3ccccc3n2Cc2ccc(Cl)cc2)cc(OC)c1OC | % | 2.6 |
| Cc1cccc(-c2nc3ccccc3n2Cc2ccccc2I)c1 | % | 60.1 |
| COc1cc(-c2nc3ccc(OCCCCl)cc3n2Cc2ccccc2)cc(OC)c1OC | % | 86.3 |
| Cc1cccc(-c2nc3ccc(O)cc3n2Cc2ccccc2C(F)(F)F)c1 | % | 55.9 |

====

Measured inhibition at 20 µM by item
biological target: NK-1 receptor (Homo sapiens); construct: an aliquot of IM9 cells; endogenous in cells; host or cells: IM9 cells (whole cells); test: NK-1 Receptor Binding Assay (competition with labeled substance P on IM9 cells); details: @ 20μM, inhibition of substance P binding to the NK-1 receptor, read-out: Percent Inhibition
Where a name gives a salt, the structure may show the parent alone.

| molecule | inhibition at 20 µM / % |
| --- | --- |
| Oc1ccc(-c2nc3ccccc3n2-c2ccccc2)cc1 [Example 29] | 67 |
| COc1ccc(-c2nc3ccccc3n2-c2ccccc2)cc1 [Example 2] | 38 |
| c1ccc(-c2nc3ccccc3n2CCN2CCCCC2)cc1 [Example 28, dihydrochloride] | 16 |
| O=[N+]([O-])c1cc(-c2nc3ccccc3n2-c2ccccc2)ccc1Cl [Example 30] | 79 |
| FC(F)(F)c1ccccc1-c1nc2ccccc2n1-c1ccccc1 [Example 36] | 43 |

====

molecular target: NK-1 receptor (Homo sapiens, UniProt P25103); construct: an aliquot of IM9 cells; endogenous in cells; host or cells: IM9 cells (whole cells); assay: NK-1 Receptor Binding Assay (competition with labeled substance P on IM9 cells); conditions: at 10μM, inhibition of substance P binding to the NK-1 receptor, read-out: Percent Inhibition
Where a name gives a salt, the structure may show the parent alone.

| compound | unit.of.measurement | inhibition at 10 µM |
| --- | --- | --- |
| COc1cc(-c2nc3ccccc3n2Cc2ccc(C)cc2)cc(OC)c1OC | % | 53 |
| Cc1cccc(-c2nc3ccccc3n2Cc2c(Cl)cccc2Cl)c1 | % | 31 |
| Cc1cccc(-c2nc3ccccc3n2Cc2ccc(Cl)cc2Cl)c1 | % | 36 |
| COc1cc(-c2nc3ccccc3n2Cc2c(Cl)cccc2Cl)cc(OC)c1OC | % | 20 |
| Cc1cccc(-c2nc3ccccc3n2Cc2ccccc2Cl)c1 | % | 71 |
| COc1ccc(Cn2c(-c3cccc(C)c3)nc3ccccc32)cc1 | % | 34 |
| COc1cc(-c2nc3ccccc3n2Cc2ccc(Cl)cc2)cc(OC)c1OC | % | 61 |
| COc1cccc(Cn2c(-c3cccc(C)c3)nc3ccccc32)c1 | % | 58 |
| Cc1cccc(-c2nc3ccccc3n2Cc2cccc(O)c2)c1 [Example 67, hydrobromide] | % | 60 |

====

molecular target: NK-1 receptor (Homo sapiens, UniProt P25103); construct: an aliquot of IM9 cells; endogenous in cells; assay: NK-1 Receptor Binding Assay (competition with labeled substance P on IM9 cells); conditions: concentration which inhibits fifty percent of the binding of substance P, 20 pM labeled substance P, 45 minutes at 4°C

| entry.smiles | experimental.system | unit.of.measurement | IC50 |
| --- | --- | --- | --- |
| COc1ccc2c(c1)nc(-c1cc(OC)c(OC)c(OC)c1)n2Cc1ccccc1 | NK-1 receptor (Homo sapiens, UniProt P25103) | nM | 1050 |
| c1ccc(-n2c(-c3ccc4ccccc4c3)nc3ccccc32)cc1 | NK-1 receptor (Homo sapiens, UniProt P25103) | nM | 6910 |
| COc1cc(-c2nc3ccc(OCCN4CCCCCC4)cc3n2Cc2ccccc2)cc(OC)c1OC | NK-1 receptor (Homo sapiens, UniProt P25103) | nM | 52 |
| c1ccc(-n2c(-c3cccs3)nc3ccccc32)cc1 | NK-1 receptor (Homo sapiens, UniProt P25103) | nM | 3980 |
| COc1cc(-c2nc3ccc(OCCCN(C)C)cc3n2Cc2ccccc2)cc(OC)c1OC | NK-1 receptor (Homo sapiens, UniProt P25103) | nM | 123 |
| COc1cc(OC)cc(-c2nc3ccccc3n2-c2ccccc2)c1 | NK-1 receptor (Homo sapiens, UniProt P25103) | nM | 1540 |
| Oc1cccc(-c2nc3ccccc3n2-c2ccccc2)c1 | NK-1 receptor (Homo sapiens, UniProt P25103) | nM | 12000 |
| COc1cc(-c2nc3ccccc3n2Cc2ccccc2Cl)cc(OC)c1OC | NK-1 receptor (Homo sapiens, UniProt P25103) | nM | 815 |
| COc1cc(-c2nc3ccccc3n2Cc2ccccc2Br)cc(OC)c1OC | NK-1 receptor (Homo sapiens, UniProt P25103) | nM | 591 |
| COc1cccc(-c2nc3ccccc3n2-c2ccccc2)c1 | NK-1 receptor (Homo sapiens, UniProt P25103) | nM | 3290 |
| COc1cc(-c2nc3ccccc3n2Cc2ccccc2F)cc(OC)c1OC | NK-1 receptor (Homo sapiens, UniProt P25103) | nM | 1390 |
